tested on: HCT-116; assay: In vitro cytotoxic evaluation against colon cancer HCT116 cell line
Items are presented alongside their recorded GI50.
The reply should contain only the number, in µM.

Examples from the recorded data:
Nc1nc(N)c2cc(CNc3ccc(Cl)c(Cl)c3)cnc2n1 ... 0.62
Nc1nc(N)c2cc(CNc3cc(Cl)ccc3Cl)cnc2n1 ... 2.1
Nc1nc(N)c2cc(CNc3ccc4ccccc4c3)cnc2n1 ... 1.9

Here is the next item to consider.
Reported GI50 for Nc1nc(N)c2cc(CNc3cc(Cl)c(Cl)c(Cl)c3)cnc2n1 was 0.74

====

Items are presented alongside their recorded GI50.
test system: SK-MEL-5; assay: […] cytotoxic evaluation against melanoma SK-MEL-5 cell line; format: functional, Homo sapiens
The reply should contain only the number, in nM.

Nc1nc(N)c2cc(CNc3ccc(Cl)c(Cl)c3)cnc2n1 ... 1100
Nc1nc(N)c2cc(CNc3ccc4ccccc4c3)cnc2n1 ... 3200
Nc1nc(N)c2cc(CNc3cc(Cl)c(Cl)c(Cl)c3)cnc2n1 ... 350

Here is the next item to consider.
Reported GI50 for Nc1nc(N)c2cc(CNc3cc(Cl)ccc3Cl)cnc2n1 was 2200

====

Items are presented alongside their recorded log10 of IC50.
Molecular target: Dihydrofolate reductase (Rattus norvegicus)
Sequence (Q920D2 whole entry): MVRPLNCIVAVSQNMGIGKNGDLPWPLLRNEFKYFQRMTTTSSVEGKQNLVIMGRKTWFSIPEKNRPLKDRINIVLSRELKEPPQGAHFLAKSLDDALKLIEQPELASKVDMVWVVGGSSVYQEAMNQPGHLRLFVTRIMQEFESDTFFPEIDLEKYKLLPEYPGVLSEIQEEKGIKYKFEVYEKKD
The base-10 logarithm of IC50, taken with IC50 in µM, is what appears here.

Reported log10 of IC50 for COc1ccc(OC)c(NCc2cnc3nc(N)nc(N)c3c2)c1 was 0.70

====

Target: Dihydrofolate reductase (Rattus norvegicus)
Sequence (Q920D2 whole entry): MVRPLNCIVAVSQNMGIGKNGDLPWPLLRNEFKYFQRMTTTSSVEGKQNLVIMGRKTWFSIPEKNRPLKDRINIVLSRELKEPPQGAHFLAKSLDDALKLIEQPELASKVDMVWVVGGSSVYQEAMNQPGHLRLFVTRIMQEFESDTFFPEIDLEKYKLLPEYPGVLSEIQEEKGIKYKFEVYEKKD
Recorded Endpoint: IC50 (nM)
The reply should contain only the number, in nM.

Examples from the recorded data:
COc1ccc(NCc2cnc3nc(N)nc(N)c3c2)cc1OC ... 560
CN(Cc1cnc2nc(N)nc(N)c2c1)c1ccc(Cl)c(Cl)c1 ... 180
CN(Cc1cnc2nc(N)nc(N)c2c1)c1ccccc1 ... 395000

Here is the next item to consider.
Reported IC50 for Nc1nc(N)c2cc(CNc3ccc4ccccc4c3)cnc2n1 was 4900
